Record: pIC50 reported on SUV420H1 enzyme (Homo sapiens, UniProt Q4FZB7).
Sequence (Q4FZB7 whole entry): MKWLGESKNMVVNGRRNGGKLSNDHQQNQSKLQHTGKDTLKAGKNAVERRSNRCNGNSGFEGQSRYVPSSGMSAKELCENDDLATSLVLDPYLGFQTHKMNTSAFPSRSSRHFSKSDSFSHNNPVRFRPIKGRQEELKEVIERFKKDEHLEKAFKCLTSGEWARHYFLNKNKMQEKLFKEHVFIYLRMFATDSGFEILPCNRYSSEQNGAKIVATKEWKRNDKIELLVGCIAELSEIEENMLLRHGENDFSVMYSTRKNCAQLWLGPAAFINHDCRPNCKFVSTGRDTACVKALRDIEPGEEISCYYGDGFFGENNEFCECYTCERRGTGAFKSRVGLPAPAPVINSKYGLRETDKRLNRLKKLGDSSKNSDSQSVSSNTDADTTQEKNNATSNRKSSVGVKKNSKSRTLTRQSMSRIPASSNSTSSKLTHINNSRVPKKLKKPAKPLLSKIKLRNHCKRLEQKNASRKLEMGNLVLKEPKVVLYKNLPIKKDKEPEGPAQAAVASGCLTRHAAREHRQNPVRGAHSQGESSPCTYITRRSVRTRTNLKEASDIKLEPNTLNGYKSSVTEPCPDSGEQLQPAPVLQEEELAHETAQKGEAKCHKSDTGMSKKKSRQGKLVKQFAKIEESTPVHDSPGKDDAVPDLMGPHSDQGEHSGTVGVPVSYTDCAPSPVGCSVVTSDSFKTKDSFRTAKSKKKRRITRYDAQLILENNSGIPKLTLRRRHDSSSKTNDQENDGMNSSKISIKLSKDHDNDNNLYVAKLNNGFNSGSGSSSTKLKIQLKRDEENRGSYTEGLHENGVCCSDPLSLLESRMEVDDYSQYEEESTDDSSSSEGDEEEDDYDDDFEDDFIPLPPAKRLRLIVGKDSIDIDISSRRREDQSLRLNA
Scale for pIC50: -log10 of concentration given in mol/L; no unit attached.

Nc1ncnc2c1ncn2Cc1cc(Cl)cc2cc(CNCc3ccccc3F)[nH]c12: 5.55
CC(=O)N1CC=C(c2cc(Cn3cnc4c(N)ncnc43)c3[nH]c(CNC(=O)c4ccc(C#N)cc4F)cc3c2)CC1: 7.37
COCCC(=O)NCc1cc2cc(Cl)cc(Cn3cnc4c(N)ncnc43)c2[nH]1: 4.96

// next item, pIC50 requested
Sample CN1CCN(Cc2cccc(-c3cc(Cn4cnc5c(N)ncnc54)c4[nH]c(CN)cc4c3)c2)CC1 , system: SUV420H1 enzyme (Homo sapiens, UniProt Q4FZB7). Its pIC50 is 6.53

* * *

studySystem: SUV420H1 enzyme (Homo sapiens)
As shown below, each of these compounds has a reported pIC50 value.
Scale for pIC50: -log10 of concentration given in mol/L; no unit attached.

Worked examples follow.
CC(C)c1ccc(Cn2cnc3c(N)ncnc32)c2[nH]c(CN)cc12: 5.37
N#Cc1ccc(C(=O)NCc2cc3cc(C4=CCC(F)(F)CC4)cc(Cn4cnc5c(N)ncnc54)c3[nH]2)c(Cl)c1: 7.17

// next item, pIC50 requested
Sample NCc1cc2cc(C3=CCCC3)cc(Cn3cnc4c(N)ncnc43)c2[nH]1 , system: SUV420H1 enzyme (Homo sapiens). Its pIC50 is 6.75

* * *

studySystem: UniProt Q4FZB7
pIC50: −log10 of the molar value.
Binary call on pIC50: yes (1) from 6 upward, no (0) beneath that.

Please review the following examples before continuing.
Cc1cccc(C(=O)NCc2cc3cc(Cl)cc(Cn4cnc5c(N)ncnc54)c3[nH]2)c1: no (0)
Cn1ccnc1C(=O)NCc1cc2cc(Cl)cc(Cn3cnc4c(N)ncnc43)c2[nH]1: no (0)
Nc1ncnc2c1ncn2Cc1cc(Cl)cc2cc(CNC(=O)c3ccccc3)[nH]c12: no (0)
Cc1noc(C)c1C(=O)NCc1cc2cc(-c3ccc(C(=O)N(C)C)cc3)cc(Cn3cnc4c(N)ncnc43)c2[nH]1: yes (1)
Cc1noc(C)c1C(=O)NCc1cc2cc(-c3ccc(S(N)(=O)=O)cc3)cc(Cn3cnc4c(N)ncnc43)c2[nH]1: yes (1)
Nc1ncnc2c1ncn2Cc1cc(Cl)cc2cc(CNC(=O)C3CCOCC3)[nH]c12: no (0)

Shifting focus to the compound that follows.
q: Textbook exercise: given the entry CC1(C(=O)NCc2cc3cc(Cl)cc(Cn4cnc5c(N)ncnc54)c3[nH]2)CC1 , state whether its pIC50 is greater than or equal to 6.
a: no (0)

* * *

Record: IC50 reported on SUV420H1 enzyme (Homo sapiens).
The response must be a number in nM with no trailing unit.

Worked examples follow.
Nc1ncnc2c1ncn2Cc1cc(Cl)cc2cc(CNC(=O)c3ccc4ocnc4c3)[nH]c12: 6870
COC(=O)c1ccc(-c2cc(Cn3cnc4c(N)ncnc43)c3[nH]c(CN)cc3c2)cc1: 560
CCn1nc(C)c(C(=O)NCc2cc3cc(Cl)cc(Cn4cnc5c(N)ncnc54)c3[nH]2)c1C: 507

Sample CC(C)C(=O)NCc1cc2cc(Cl)cc(Cn3cnc4c(N)ncnc43)c2[nH]1 , system: SUV420H1 enzyme (Homo sapiens). Its IC50 is 25100

Sample COc1cc(C#N)ccc1CNCc1cc2cc(Cl)cc(Cn3cnc4c(N)ncnc43)c2[nH]1 , system: SUV420H1 enzyme (Homo sapiens). Its IC50 is 3240

Sample Nc1ncnc2c1ncn2Cc1cc(Cl)cc2cc(CNC(=O)c3cc4[nH]nnc4cc3F)[nH]c12 , system: SUV420H1 enzyme (Homo sapiens). Its IC50 is 2040

Sample CC(C)(C)CC(=O)NCc1cc2cc(Cl)cc(Cn3cnc4c(N)ncnc43)c2[nH]1 , system: SUV420H1 enzyme (Homo sapiens). Its IC50 is 18200

Sample Cn1cnc2cc(C(=O)NCc3cc4cc(Cl)cc(Cn5cnc6c(N)ncnc65)c4[nH]3)ccc21 , system: SUV420H1 enzyme (Homo sapiens). Its IC50 is 2150

Sample Nc1ncnc2c1ncn2Cc1cc(Cl)cc2cc(CNC(=O)CN3CCOCC3)[nH]c12 , system: SUV420H1 enzyme (Homo sapiens). Its IC50 is 6000

Sample CCc1oncc1C(=O)NCc1cc2cc(Cl)cc(Cn3cnc4c(N)ncnc43)c2[nH]1 , system: SUV420H1 enzyme (Homo sapiens). Its IC50 is 2860

Sample Cn1cncc1C(=O)NCc1cc2cc(Cl)cc(Cn3cnc4c(N)ncnc43)c2[nH]1 , system: SUV420H1 enzyme (Homo sapiens). Its IC50 is 4400

Sample Cc1nc2cc(C(=O)NCc3cc4cc(Cl)cc(Cn5cnc6c(N)ncnc65)c4[nH]3)ccc2[nH]1 , system: SUV420H1 enzyme (Homo sapiens). Its IC50 is 4300

Sample Cc1[nH]c2cc(C(=O)NCc3cc4cc(Cl)cc(Cn5cnc6c(N)ncnc65)c4[nH]3)ccc2c1C , system: SUV420H1 enzyme (Homo sapiens). Its IC50 is 261

Sample N#Cc1cccc(CNCc2cc3cc(Cl)cc(Cn4cnc5c(N)ncnc54)c3[nH]2)c1 , system: SUV420H1 enzyme (Homo sapiens). Its IC50 is 4640

Sample Nc1ncnc2c1ncn2Cc1cc(Cl)cc2cc(CNC(=O)c3cnccn3)[nH]c12 , system: SUV420H1 enzyme (Homo sapiens). Its IC50 is 20000

Sample Nc1ncnc2c1ncn2Cc1cc(Cl)cc2cc(CNC(=O)c3cccnc3)[nH]c12 , system: SUV420H1 enzyme (Homo sapiens). Its IC50 is 905

Sample N#Cc1ccc(C(=O)NCc2cc3c(Cl)ccc(Cn4cnc5c(N)ncnc54)c3[nH]2)c(Cl)c1 , system: SUV420H1 enzyme (Homo sapiens). Its IC50 is 72.3

Sample CC(=O)N1CC=C(c2cc(Cn3cnc4c(N)ncnc43)c3[nH]c(CNC(=O)c4ccnnc4C)cc3c2)CC1 , system: SUV420H1 enzyme (Homo sapiens). Its IC50 is 27.7

Sample Cn1ccnc1-c1ccccc1C(=O)NCc1cc2cc(Cl)cc(Cn3cnc4c(N)ncnc43)c2[nH]1 , system: SUV420H1 enzyme (Homo sapiens). Its IC50 is 5280

Sample Cc1cccc(-c2cc(Cn3cnc4c(N)ncnc43)c3[nH]c(CN)cc3c2)c1 , system: SUV420H1 enzyme (Homo sapiens). Its IC50 is 901

Sample NCc1cc2c(-c3cccnc3)ccc(Cn3cnc4c(N)ncnc43)c2[nH]1 , system: SUV420H1 enzyme (Homo sapiens). Its IC50 is 663

Sample Cc1noc(C)c1C(=O)NCc1cc2cc(-c3ccc(CC#N)cc3)cc(Cn3cnc4c(N)ncnc43)c2[nH]1 , system: SUV420H1 enzyme (Homo sapiens). Its IC50 is 82.8

Sample Cc1ccccc1CNCc1cc2cc(Cl)cc(Cn3cnc4c(N)ncnc43)c2[nH]1 , system: SUV420H1 enzyme (Homo sapiens). Its IC50 is 2640

Sample Cc1ccccc1-c1cc(Cn2cnc3c(N)ncnc32)c2[nH]c(CN)cc2c1 , system: SUV420H1 enzyme (Homo sapiens). Its IC50 is 3330

Sample Cc1nnccc1C(=O)NCc1cc2cc(C3=CCN(S(C)(=O)=O)CC3)cc(Cn3cnc4c(N)ncnc43)c2[nH]1 , system: SUV420H1 enzyme (Homo sapiens). Its IC50 is 64.1
